# measurement_description: Plasma concentration in Sprague-Dawley rat at 10 mg/kg, po after 2 hrs
# Type: ADME, organism-based
# Set-up: dose 10 mg/kg, route oral
measured_property: concentration at 2 h (µM)

# count of solved cases: 4
>>> df
                              smiles_record  readout_number
0  C[C@@H]1NC(c2ccnc(C#N)c2)=N[C@@]1(c1ccc(F)cc1)c1ccc(F)nc1             3.7
1  C[C@@H]1NC(c2cccc(C#N)c2)=N[C@@]1(c1ccc(F)cc1)c1ccc(F)nc1             2.6
2  C[C@@H]1NC(c2cc(C#N)ccn2)=N[C@@]1(c1ccc(F)cc1)c1ccc(F)nc1             2.6
3  C[C@@H]1NC(c2cccc(=O)[nH]2)=N[C@@]1(c1ccc(F)cc1)c1ccc(F)nc1             3.7

[A] N#Cc1ccnc(C2=NC(c3ccc(F)cc3)(c3ccc(F)cc3)[C@H](CO)N2)c1
[B] C[C@@H]1NC(c2cncc(C#N)c2)=N[C@@]1(c1ccc(F)cc1)c1ccc(F)nc1
input: In the pair A and B , the larger recorded concentration at 2 h belongs to which? Please reply using the label of the selected record.
output: B
